Reported solubility at 24 h is given for each of the following molecules.
method: Solubility in organic solvents via HPTLC (after 24 hours and 7 days)
Type: physicochemical
condition label: 25 °C, organic solvent or mixture, thermodynamic from solid; cyclohexylbenzene, 24 hours, room temperature; read-out: Solubility after 24 hours, Cyclohexylbenzene

molecule	solubility at 24 h
c1ccc(-c2cccc(-c3cc(-c4cccc(-c5ccccc5)c4)cc(C4(c5cc(-c6cccc(-c7ccccc7)c6)cc(-c6cccc(-c7ccccc7)c6)c5)c5ccccc5-c5ccccc54)c3)c2)cc1 [Compound B-1, reference compound]	< 20 mg/mL
Cc1cc(C)c(-c2cccc3c2-c2ccccc2C3(c2cc(-c3cc(-c4ccc(C(C)(C)C)cc4)cc(-c4ccc(C(C)(C)C)cc4)c3)cc(-c3cc(-c4ccc(C(C)(C)C)cc4)cc(-c4ccc(C(C)(C)C)cc4)c3)c2)c2cc(-c3cc(-c4ccc(C(C)(C)C)cc4)cc(-c4ccc(C(C)(C)C)cc4)c3)cc(-c3cc(-c4ccc(C(C)(C)C)cc4)cc(-c4ccc(C(C)(C)C)cc4)c3)c2)c(C)c1	> 50 mg/mL
c1ccc(-c2cc(-c3ccccc3)cc(-c3cccc(-c4cccc(C5(c6cccc(-c7cccc(-c8cc(-c9ccccc9)cc(-c9ccccc9)c8)c7)c6)c6ccccc6-c6c(-c7cccc(-c8ccccc8)c7)cccc65)c4)c3)c2)cc1	< 50 mg/mL

====

method: Solubility in organic solvents via HPTLC (after 24 hours and 7 days)
Format: physicochemical
condition label: tetralin, 24 hours, room temperature
Reported Solubility after 24 hours, Tetralin is given for each of the following compounds.

entry smiles	Solubility after 24 hours, Tetralin
c1ccc(-c2cc(-c3ccccc3)cc(-c3cccc(-c4cccc(C5(c6cccc(-c7cccc(-c8cc(-c9ccccc9)cc(-c9ccccc9)c8)c7)c6)c6ccccc6-c6c(-c7ccccc7)cccc65)c4)c3)c2)cc1	>50 mg/mL
c1ccc(-c2cccc(-c3cc(-c4cccc(-c5ccccc5)c4)cc(C4(c5cc(-c6cccc(-c7ccccc7)c6)cc(-c6cccc(-c7ccccc7)c6)c5)c5ccccc5-c5c(-c6ccccc6)cccc54)c3)c2)cc1	>50 mg/mL
c1ccc(-c2cccc(-c3cc(-c4cccc(-c5ccccc5)c4)cc(C4(c5cc(-c6cccc(-c7ccccc7)c6)cc(-c6cccc(-c7ccccc7)c6)c5)c5ccccc5-c5c(-c6ccccc6-c6ccccc6)cccc54)c3)c2)cc1	>50 mg/mL

====

method: Solubility in organic solvents via HPTLC (after 24 hours and 7 days)
Format: physicochemical
condition label: cyclohexylbenzene, 24 hours, room temperature
Reported Solubility after 24 hours, Cyclohexylbenzene is given for each of the following compounds.
measurement label: Solubility after 24 hours, Cyclohexylbenzene

compound	obs value
c1ccc(-c2cccc(-c3cc(-c4cccc(-c5ccccc5)c4)cc(C4(c5cc(-c6cccc(-c7ccccc7)c6)cc(-c6cccc(-c7ccccc7)c6)c5)c5ccccc5-c5c(-c6ccccc6)cccc54)c3)c2)cc1 [Compound M-0005]	>50 mg/mL
c1ccc(-c2cc(-c3ccccc3)cc(-c3cccc(-c4cccc(C5(c6cccc(-c7cccc(-c8cc(-c9ccccc9)cc(-c9ccccc9)c8)c7)c6)c6ccccc6-c6c(-c7ccccc7)cccc65)c4)c3)c2)cc1 [Compound M-0002]	<1 mg/mL

====

Reported Solubility after 7 days, Toluene is given for each of the following molecules.
method: Solubility in organic solvents via HPTLC (after 24 hours and 7 days)
Type: physicochemical
condition label: toluene, 7 days storage at room temperature
Experimental: One way of processing the materials of the invention is from solution. In addition, it is a feature of materials of the invention that their […] stability is elevated, as apparent from the long-term solubility data in Table 1. Method of Determining Solubility Via HPTLC […] HPTLC measurement: The HPTLC plate is scanned by a TLC scanner, peaks are integrated and a calibration function is determined.
measurement label: Solubility after 7 days, Toluene

molecule	measurement label	obs value
c1ccc(-c2cc(-c3ccccc3)cc(-c3cccc(-c4cccc(C5(c6cccc(-c7cccc(-c8cc(-c9ccccc9)cc(-c9ccccc9)c8)c7)c6)c6ccccc6-c6c(-c7ccccc7)cccc65)c4)c3)c2)cc1 [Compound M-0002]	Solubility after 7 days, Toluene	>50 mg/mL
c1ccc(-c2cccc(-c3cc(-c4cccc(-c5ccccc5)c4)cc(C4(c5cc(-c6cccc(-c7ccccc7)c6)cc(-c6cccc(-c7ccccc7)c6)c5)c5ccccc5-c5c(-c6ccccc6-c6ccccc6)cccc54)c3)c2)cc1 [Compound M-0043]	Solubility after 7 days, Toluene	<50 mg/mL
c1ccc(-c2cc(-c3ccccc3)cc(-c3cccc(-c4cccc(C5(c6cccc(-c7cccc(-c8cc(-c9ccccc9)cc(-c9ccccc9)c8)c7)c6)c6cc7c(cc6-c6c5ccc5c6-c6ccccc6C56c5ccccc5-c5ccccc56)OCO7)c4)c3)c2)cc1 [Compound M-0226]	Solubility after 7 days, Toluene	<20 mg/mL
Cc1ccc2c(c1)-c1c(-c3cccc(-c4ccccc4)c3)cccc1C2(c1cccc(-c2cccc3c2-c2ccccc2C3(C)C)c1)c1cccc(-c2cccc3c2-c2ccccc2C3(C)C)c1 [Compound M-0172]	Solubility after 7 days, Toluene	<30 mg/mL
c1ccc(-c2cccc(-c3cc(-c4cccc(-c5ccccc5)c4)cc(C4(c5cc(-c6cccc(-c7ccccc7)c6)cc(-c6cccc(-c7ccccc7)c6)c5)c5ccccc5-c5c(-c6ccccc6)cccc54)c3)c2)cc1 [Compound M-0005]	Solubility after 7 days, Toluene	>50 mg/mL

====

Reported solubility at 7 days is given for each of the following compounds.
method: Solubility in organic solvents via HPTLC (after 24 hours and 7 days)
Format: physicochemical
condition label: organic solvent or mixture, thermodynamic from solid; mesitylene, 7 days storage at room temperature; read-out: Solubility after 7 days, Mesitylene

compound	solubility at 7 days
c1ccc(-c2cc(-c3ccccc3)cc(-c3cccc(-c4cccc(C5(c6cccc(-c7cccc(-c8cc(-c9ccccc9)cc(-c9ccccc9)c8)c7)c6)c6ccccc6-c6ccccc65)c4)c3)c2)cc1 [Compound B-2, reference compound]	< 1 mg/mL
c1ccc(-c2cc(-c3ccccc3)cc(-c3cccc(-c4cccc(C5(c6cccc(-c7cccc(-c8cc(-c9ccccc9)cc(-c9ccccc9)c8)c7)c6)c6ccccc6-c6c(-c7cccc(-c8ccccc8)c7)cccc65)c4)c3)c2)cc1	> 50 mg/mL
c1ccc(-c2cccc(-c3cc(-c4cccc(-c5ccccc5)c4)cc(C4(c5cc(-c6cccc(-c7ccccc7)c6)cc(-c6cccc(-c7ccccc7)c6)c5)c5ccccc5-c5ccc(-c6ccccc6)cc54)c3)c2)cc1 [Compound B-3, reference compound]	< 40 mg/mL
Cc1cc(C)c(-c2cccc3c2-c2ccccc2C3(c2cc(-c3cc(-c4ccc(C(C)(C)C)cc4)cc(-c4ccc(C(C)(C)C)cc4)c3)cc(-c3cc(-c4ccc(C(C)(C)C)cc4)cc(-c4ccc(C(C)(C)C)cc4)c3)c2)c2cc(-c3cc(-c4ccc(C(C)(C)C)cc4)cc(-c4ccc(C(C)(C)C)cc4)c3)cc(-c3cc(-c4ccc(C(C)(C)C)cc4)cc(-c4ccc(C(C)(C)C)cc4)c3)c2)c(C)c1	> 50 mg/mL
c1ccc(-c2cccc(-c3cc(-c4cccc(-c5ccccc5)c4)cc(C4(c5cc(-c6cccc(-c7ccccc7)c6)cc(-c6cccc(-c7ccccc7)c6)c5)c5ccccc5-c5ccccc54)c3)c2)cc1 [Compound B-1, reference compound]	< 40 mg/mL

====

method: Baking of emission layer film at elevated temperature: state of film
Format: physicochemical
condition label: Ref. temp. 150, elevated temp. 180; EML mixture per Table 5
measurement label: State of film after baking at elevated temp.

entry smiles	obs value
c1ccc(-c2cc(-c3ccccc3)cc(-c3cccc(-c4cccc(C5(c6cccc(-c7cccc(-c8cc(-c9ccccc9)cc(-c9ccccc9)c8)c7)c6)c6ccccc6-c6c(-c7cccc(-c8ccccc8)c7)cccc65)c4)c3)c2)cc1	clear

====

method: Solubility in organic solvents via HPTLC (after 24 hours and 7 days)
Type: physicochemical
condition label: 25 °C, organic solvent or mixture, thermodynamic from solid; toluene, 24 hours, room temperature; read-out: Solubility after 24 hours, Toluene

molecule	solubility at 24 h
c1ccc(-c2cccc(-c3cc(-c4cccc(-c5ccccc5)c4)cc(C4(c5cc(-c6cccc(-c7ccccc7)c6)cc(-c6cccc(-c7ccccc7)c6)c5)c5ccccc5-c5ccc(-c6ccccc6)cc54)c3)c2)cc1 [Compound B-3, reference compound]	> 50 mg/mL
c1ccc(-c2cc(-c3ccccc3)cc(-c3cccc(-c4cccc(C5(c6cccc(-c7cccc(-c8cc(-c9ccccc9)cc(-c9ccccc9)c8)c7)c6)c6ccccc6-c6ccccc65)c4)c3)c2)cc1 [Compound B-2, reference compound]	< 1 mg/mL
c1ccc(-c2cccc(-c3cc(-c4cccc(-c5ccccc5)c4)cc(C4(c5cc(-c6cccc(-c7ccccc7)c6)cc(-c6cccc(-c7ccccc7)c6)c5)c5ccccc5-c5ccccc54)c3)c2)cc1 [Compound B-1, reference compound]	> 50 mg/mL
c1ccc(-c2cc(-c3ccccc3)cc(-c3cccc(-c4cccc(C5(c6cccc(-c7cccc(-c8cc(-c9ccccc9)cc(-c9ccccc9)c8)c7)c6)c6ccccc6-c6c(-c7cccc(-c8ccccc8)c7)cccc65)c4)c3)c2)cc1	> 50 mg/mL
Cc1cc(C)c(-c2cccc3c2-c2ccccc2C3(c2cc(-c3cc(-c4ccc(C(C)(C)C)cc4)cc(-c4ccc(C(C)(C)C)cc4)c3)cc(-c3cc(-c4ccc(C(C)(C)C)cc4)cc(-c4ccc(C(C)(C)C)cc4)c3)c2)c2cc(-c3cc(-c4ccc(C(C)(C)C)cc4)cc(-c4ccc(C(C)(C)C)cc4)c3)cc(-c3cc(-c4ccc(C(C)(C)C)cc4)cc(-c4ccc(C(C)(C)C)cc4)c3)c2)c(C)c1	> 50 mg/mL
